subject.of.test: Norepinephrine transporter (Rattus norvegicus, UniProt Q9WTR4)
Sequence (Q9WTR4 whole entry): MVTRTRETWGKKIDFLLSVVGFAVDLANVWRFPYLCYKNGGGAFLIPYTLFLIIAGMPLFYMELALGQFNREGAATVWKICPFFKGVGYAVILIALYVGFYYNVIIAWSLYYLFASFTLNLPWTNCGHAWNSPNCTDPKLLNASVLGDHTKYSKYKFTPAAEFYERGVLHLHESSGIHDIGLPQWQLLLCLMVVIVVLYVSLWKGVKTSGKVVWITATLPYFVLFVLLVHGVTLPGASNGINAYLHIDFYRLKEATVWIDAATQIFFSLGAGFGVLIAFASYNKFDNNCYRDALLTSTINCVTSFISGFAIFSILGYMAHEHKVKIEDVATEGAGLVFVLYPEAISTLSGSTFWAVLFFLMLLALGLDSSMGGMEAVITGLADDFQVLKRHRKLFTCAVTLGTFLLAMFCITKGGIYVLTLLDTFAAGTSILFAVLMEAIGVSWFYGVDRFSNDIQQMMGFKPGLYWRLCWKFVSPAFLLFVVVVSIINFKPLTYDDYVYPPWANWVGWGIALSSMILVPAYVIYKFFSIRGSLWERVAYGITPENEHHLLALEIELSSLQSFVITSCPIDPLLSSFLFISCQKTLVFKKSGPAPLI
experiment.description: Inhibitory concentration binding to Norepinephrine transporter using 0.2 nM […]
measure: IC50

What value of measured IC50 is listed for Cc1noc([C@H]2CN(C)CC[C@@H]2c2ccc(Cl)cc2)n1 ?
0.363 µM

----------
subject.of.test: Norepinephrine transporter (Rattus norvegicus, UniProt Q9WTR4)
experiment.description: Evaluated for its ability to inhibit high affinity uptake of [3H]NE using rat nerve endings obtained from brain regions enriched in norepinephrine transporter (NET)
Assay type: functional
measure: IC50

Could you share which IC50 value was measured for Cc1noc([C@@H]2CN(C)CC[C@H]2c2ccc(Cl)cc2)n1 ?
> 1000 nM

----------
subject.of.test: Sodium-dependent serotonin transporter (Rattus norvegicus)
Sequence (P31652 whole entry): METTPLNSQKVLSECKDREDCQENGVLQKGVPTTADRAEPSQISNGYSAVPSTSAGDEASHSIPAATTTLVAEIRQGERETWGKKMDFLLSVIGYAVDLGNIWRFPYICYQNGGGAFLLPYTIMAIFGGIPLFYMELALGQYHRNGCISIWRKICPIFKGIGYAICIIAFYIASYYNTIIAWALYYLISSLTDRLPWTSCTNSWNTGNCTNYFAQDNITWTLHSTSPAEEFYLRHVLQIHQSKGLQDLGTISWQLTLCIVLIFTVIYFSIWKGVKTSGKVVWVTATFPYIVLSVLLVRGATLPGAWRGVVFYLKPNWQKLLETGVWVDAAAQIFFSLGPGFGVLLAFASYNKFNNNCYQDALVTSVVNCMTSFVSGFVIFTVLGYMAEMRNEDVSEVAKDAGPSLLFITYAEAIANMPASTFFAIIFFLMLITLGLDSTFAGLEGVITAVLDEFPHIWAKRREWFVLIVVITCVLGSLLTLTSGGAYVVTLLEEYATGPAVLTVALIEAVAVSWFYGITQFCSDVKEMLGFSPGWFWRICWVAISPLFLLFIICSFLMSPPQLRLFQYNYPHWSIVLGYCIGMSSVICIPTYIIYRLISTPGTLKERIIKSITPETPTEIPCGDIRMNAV
experiment.description: Evaluated for its ability to inhibit high affinity uptake of [3H]-5-HT using rat nerve endings obtained from brain regions enriched in serotonin transporter (5HTT)
Assay type: functional
measure: IC50

Param readout= IC50; system= Sodium-dependent serotonin transporter (Rattus norvegicus); entry= Cc1noc([C@@H]2CN(C)CC[C@H]2c2ccc(Cl)cc2)n1 ; returns value.
> 3 µM

----------
subject.of.test: Sodium-dependent dopamine transporter (Rattus norvegicus, UniProt P23977)
Sequence (P23977 whole entry): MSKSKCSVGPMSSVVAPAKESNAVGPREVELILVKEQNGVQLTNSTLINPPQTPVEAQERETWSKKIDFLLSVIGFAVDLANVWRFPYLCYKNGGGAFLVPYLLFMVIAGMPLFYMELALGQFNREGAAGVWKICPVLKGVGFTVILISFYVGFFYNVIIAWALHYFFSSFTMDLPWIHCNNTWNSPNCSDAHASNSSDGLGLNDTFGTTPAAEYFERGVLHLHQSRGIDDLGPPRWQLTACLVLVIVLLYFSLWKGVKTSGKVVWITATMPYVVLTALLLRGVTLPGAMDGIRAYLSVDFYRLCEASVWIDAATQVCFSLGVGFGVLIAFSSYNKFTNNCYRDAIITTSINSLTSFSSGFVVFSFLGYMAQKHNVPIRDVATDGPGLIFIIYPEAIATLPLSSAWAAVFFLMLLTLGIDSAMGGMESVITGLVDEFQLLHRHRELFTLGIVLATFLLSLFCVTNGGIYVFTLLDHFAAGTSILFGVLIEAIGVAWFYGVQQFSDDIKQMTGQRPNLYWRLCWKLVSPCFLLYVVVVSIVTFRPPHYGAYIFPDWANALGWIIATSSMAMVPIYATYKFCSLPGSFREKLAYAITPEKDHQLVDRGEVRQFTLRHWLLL
experiment.description: Displacement of [3H][…] from dopamine transporter (DAT) of rat striatal membrane
measure: Ki

These recorded examples may help you get a feel for the data.
structure.smiles: CN1CC[C@@H](c2ccc(Cl)cc2)[C@H](c2nc(-c3ccc4c(c3)OCO4)no2)C1
subject.of.test: Sodium-dependent dopamine transporter (Rattus norvegicus, UniProt P23977)
Ki: > 3 µM

structure.smiles: CC(C)c1noc([C@H]2CN(C)CC[C@@H]2c2ccc(Cl)cc2)n1
subject.of.test: Sodium-dependent dopamine transporter (Rattus norvegicus, UniProt P23977)
Ki: 0.494 µM

Returns the measured Ki for the input molecule. Input: CN1CC[C@H](c2ccc(Cl)cc2)[C@@H](c2nc(-c3ccc4c(c3)OCO4)no2)C1
> 3 µM

Same lookup for CN1CC[C@H](c2ccc(Cl)cc2)[C@@H](c2nc(-c3ccc(Cl)cc3)no2)C1 , please.
> 3 µM

Next: CN1CC[C@H](c2ccc(Cl)cc2)[C@@H](c2nc(-c3ccc(Br)cc3)no2)C1
> 3 µM

Please do the same for CC(C)c1noc([C@@H]2CN(C)CC[C@H]2c2ccc(Cl)cc2)n1 as well.
2.9 µM

Another: CN1CC[C@@H](c2ccc(Cl)cc2)[C@H](c2nc(-c3ccc(Br)cc3)no2)C1
> 3 µM

Another molecule: COC(=O)[C@H]1CN(C)CC[C@@H]1c1ccc(Cl)cc1
0.315 µM

What about Cc1noc([C@H]2CN(C)CC[C@@H]2c2ccc(Cl)cc2)n1 ?
0.201 µM

Can you check COc1ccc(-c2noc([C@H]3CN(C)CC[C@@H]3c3ccc(Cl)cc3)n2)cc1 next?
> 3 µM

Again, but for CN1CC[C@@H](c2ccc(Cl)cc2)[C@H](c2nc(-c3ccc(Cl)cc3)no2)C1
> 3 µM

// next record COc1ccc(-c2noc([C@@H]3CN(C)CC[C@H]3c3ccc(Cl)cc3)n2)cc1
> 3 µM

And then COC(=O)[C@@H]1CN(C)CC[C@H]1c1ccc(Cl)cc1 , what is it?
2 µM

----------
subject.of.test: Sodium-dependent dopamine transporter (Rattus norvegicus, UniProt P23977)
experiment.description: Inhibitory concentration binding to Dopamine transporter using 0.5 nM [3H]WIN-35428
measure: IC50 (nM)
Give the value in nM but do not write nM after it.

Find the recorded IC50 belonging to Cc1noc([C@H]2CN(C)CC[C@@H]2c2ccc(Cl)cc2)n1 and report it.
4.05
